system: Plasmodium berghei; test: Screen against P. berghei liver stage (PbLuc), transformed with Luciferase, at 10uM; format: functional, HepG2; details: tested at 10 uM
Screen size: about 69,000 compounds; about 8,600 (12%) showed an effect of 50% or more. This is one part of a sample in which strong results are shown more often than they occur.
Criterion: INHIBITION meeting or surpassing 40%. Met: label 1. Not met: label 0.

{"columns": ["Molecule", "Test target", "Discrete label"],
 "data": [
  ["CNc1ccnc(NCCSc2nccn2C)n1", "Plasmodium berghei", "label 1"]
]}

Inquiry: # bool: INHIBITION of CC(C)N1CCC2(CCCN(Cc3ccc(F)cc3)C2=O)C1 (configuration not stated) >= 40%
Reply text: label 1

Inquiry: Does the molecule CCc1nc(CN2CC[C@@](O)(CCOC)[C@H](C)C2)cs1 have recorded INHIBITION that is 40% or more?
Reply text: label 0

Inquiry: Dear colleague, could you confirm whether Cc1nc(N(C)C)nc(C)c1NS(=O)(=O)c1ccc(OC(F)(F)F)cc1 has INHIBITION at or above 40%?
Reply text: label 0

* * *

system: Plasmodium berghei; experiment: Screen against P. berghei liver stage (PbLuc), transformed with Luciferase, at 10uM; type: functional, HepG2; settings: tested at 10 uM
Hit rate of the full screen: of about 69,000 compounds, about 8,600 (12%) showed an effect of 50% or more. For the sample, strong results were picked, then their nearest neighbours and some compounds at random.
Below is a list of entries, each paired with its recorded INHIBITION value.
Express the result in % but write the number alone.

Observe how each entry below is paired with its result.
{"columns": ["Compound", "U", "INHIBITION"],
 "data": [
  ["c1ccc(-c2nnc3sc(CCN4CCCCCC4)nn23)cc1", "%", 30.8],
  ["COCC(C)(C)NC(=O)CC(c1ccccc1)C(F)(F)F (stereo not drawn)", "%", 29.4]
]}

Okay, next one:
Inquiry: Consider the compound Cc1ccc(CN2CCN(C(=O)CCc3nc(Cl)n[nH]3)CC2=O)cc1 and give its recorded INHIBITION.
Reply text: 29.4

* * *

test system: Plasmodium berghei; assay: Screen against P. berghei liver stage (PbLuc), transformed with Luciferase, at 10uM; assay type: functional, HepG2; details: tested at 10 uM
Hit rate of the full screen: of about 69,000 compounds, about 8,600 (12%) showed an effect of 50% or more. The entries come from a sample that favours strong results as a whole.
Measured INHIBITION, listed per entry for reference.
Give a bare numeral; the unit % is implied.

{"columns": ["Molecule", "Test target", "INHIBITION (%)"],
 "data": [
  ["CCn1cc(C(=O)N2CCCC(c3[nH]ncc3S(C)(=O)=O)C2)cn1 (centres undefined)", "Plasmodium berghei", 16.9],
  ["CC(C)(N)CNS(=O)(=O)Cc1cccc2cccnc12", "Plasmodium berghei", 2.66],
  ["CN1CCN(Cc2nnc(C3CCN(C(CO)CO)CC3)n2C)CC1", "Plasmodium berghei", 62.9],
  ["CCN(C)CC(=O)N1CCCC(c2nnc(CN3CCOCC3)n2C)C1 (centres undefined)", "Plasmodium berghei", 55.7],
  ["c1ccc(Cn2cccn2)c(CNCC2CNc3ccnn3C2)c1 (centres undefined)", "Plasmodium berghei", 45.8],
  ["c1ccc(Cn2cc(CNCC3CNc4ccnn4C3)cn2)cc1 (centres undefined)", "Plasmodium berghei", 9.54],
  ["c1cc(CNCC2CNc3ccnn3C2)cc(OC2CCCCC2)n1 (centres undefined)", "Plasmodium berghei", 40.2],
  ["c1cc(CNCC2CNc3ccnn3C2)cc(OC2CCCC2)n1 (centres undefined)", "Plasmodium berghei", 60.7]
]}

Inquiry: Report the value of INHIBITION obtained on Plasmodium berghei for COCCNCc1cc2ccc(C)c(C)c2[nH]c1=O .
Reply text: 1.475

* * *

system: Plasmodium berghei; experiment: Screen against P. berghei liver stage (PbLuc), transformed with Luciferase, at 10uM; assay type: functional, HepG2; settings: tested at 10 uM
The whole screen tested about 69,000 compounds, of which about 8,600 (12%) showed an effect of 50% or more. The full list was thinned out, with strong results kept by preference.
// INHIBITION lookup, one value per entry
Field format: number, assumed %, no unit text.

Example entries begin here.
{"columns": ["Molecule", "INHIBITION (%)"],
 "data": [
  ["CC(O)(CN1CCC(O)CC1)c1cccc(C(F)(F)F)c1 (stereo unspecified)", -37.7],
  ["O[C@H]1CN(Cc2cccc(C(F)(F)F)c2)CC[C@@]12CCCO2", 37.6],
  ["Cc1cccc(CNCC2COC3(CCCCC3)O2)c1C (stereo unspecified)", -3.77],
  ["CCc1ccc(CN(CCCn2ccnc2)Cc2ccc(C)s2)o1", 52.3],
  ["Cn1ccnc1CN1CCC2(CC(=O)N(c3ccsc3)C2)C1 (stereo unspecified)", 53.2],
  ["Cc1ccc(N(C)S(=O)(=O)c2cc(C(=O)O)cs2)cc1", 52.5]
]}

Inquiry: Write down INHIBITION measured for item CCc1ccc(CN2CCN(c3ncc(Cl)cn3)CC2)nc1
Reply text: 50.1

Inquiry: Output measured INHIBITION for this item: CC(C)c1nnc2n1CCN(Cc1nc(-c3ccoc3)no1)C2
Reply text: 17.45

Inquiry: Provide INHIBITION value for the following molecule: Cc1ccc(CN(CCCN2CCOCC2)Cc2cncn2C)o1
Reply text: 30.4

Inquiry: State, in one line, measured INHIBITION of COc1cccc(F)c1CN1CCC(c2nccc(C)n2)C1 (stereo unspecified)
Reply text: 1.35

Inquiry: Give the reported INHIBITION for this molecule. Cc1ccsc1CN(Cc1ncccc1C(=O)O)C1CC1
Reply text: 31.9

Inquiry: Provide one value: measured INHIBITION of COc1cccc(-c2n[nH]cc2CNC2CCN(C(C)C)CC2)c1
Reply text: -59.5

Inquiry: Give the reported value of INHIBITION for this record: c1csc(SCC2CN=C(N3CCOCC3)S2)c1 (stereo unspecified)
Reply text: -12.9

Inquiry: For the molecule Cc1cc(C(=O)N2C[C@@H]3COC[C@]3(CN(C)C)C2)c(C)o1 , give its reported INHIBITION.
Reply text: 25.1

Inquiry: Identify measured INHIBITION corresponding to CSc1ccc(C(C(=O)O)N2CCC(C(=O)N3CCCC3)CC2)cc1 (stereo unspecified)
Reply text: 43.9

Inquiry: Please report the measured INHIBITION for Cc1c(C(C)Nc2ncnc3sccc23)cnn1C (stereo unspecified)
Reply text: 55.5

* * *

Attribute: INHIBITION
test system: Plasmodium berghei; test: Screen against P. berghei liver stage (PbLuc), transformed with Luciferase, at 10uM; assay type: functional, HepG2; conditions: tested at 10 uM
Hit rate of the full screen: of about 69,000 compounds, about 8,600 (12%) showed an effect of 50% or more. Only a selection was taken, and strong results are over-represented in it overall.
Express it in %; write the number only.

{"columns": ["Substance smiles", "U", "INHIBITION"],
 "data": [
  ["COCCNc1ncc(-c2cccc(OC)c2)c(-c2nccn2C)n1", "%", 3.48],
  ["CC(C)C(=O)Nc1cc(C(C)(C)C)nn1-c1ccccn1", "%", -6.94]
]}

The record that follows has no INHIBITION shown yet.
Inquiry: Return value of INHIBITION for input COc1ccccc1CN1C(=O)O[C@@H]2CN(S(=O)(=O)N(C)C)C[C@@H]21 , no commentary.
Reply text: 7.97

* * *

system: Plasmodium berghei; assay: Screen against P. berghei liver stage (PbLuc), transformed with Luciferase, at 10uM; assay type: functional, HepG2; conditions: tested at 10 uM
In all, about 69,000 compounds went through this assay and about 8,600 (12%) showed an effect of 50% or more. For the sample, strong results were picked, then their nearest neighbours and some compounds at random.
Let's look at some compounds and their measured INHIBITION.
Response body: numeric value in %, unit text excluded.

Worked examples follow.
{"columns": ["Compound", "Test target", "Measured property", "Reading"],
 "data": [
  ["COc1ccc(OC)c(CCNC(=O)CCC2CCCO2)c1 (stereo not given)", "Plasmodium berghei", "INHIBITION", 38.3],
  ["Cc1ccc2c(c1)C1(CC2)CCN(CC(=O)O)CC1", "Plasmodium berghei", "INHIBITION", 19.5],
  ["Cc1cc(OCc2ccc(C(=O)O)s2)ccc1Cl", "Plasmodium berghei", "INHIBITION", -61.9],
  ["CC1CCN(C(=O)c2cc(NC(=O)c3ccccc3)n(C)n2)CC1", "Plasmodium berghei", "INHIBITION", 26.4],
  ["Cc1ccsc1CN(C)Cn1nccc1-c1cccnc1", "Plasmodium berghei", "INHIBITION", 5.79]
]}

Inquiry: For the compound Fc1cccc(CNCC2OCCc3cn(CC4CCOCC4)nc32)c1 (stereo not given) , give its reported INHIBITION.
Reply text: 68.4

Inquiry: Using known records, supply INHIBITION for c1cnc(N2CCC(c3nccn3CC3CC3)CC2)nc1
Reply text: 36.5

Inquiry: Report INHIBITION, nothing else, for this compound: Cc1occc(=O)c1OCc1noc(C(=O)NCC(C)C)n1
Reply text: 26.9

Inquiry: Specify INHIBITION for O=C(NS(=O)(=O)c1c(Cl)cccc1Cl)c1cccc2c1OCCO2 and stop.
Reply text: 12.3

Inquiry: Annotate the compound O=C(CCC1CCCO1)NCCCO (stereo not given) with its measured INHIBITION.
Reply text: 51
